So I've got a bunch of sequences here, and I need their apparent KD of MS2 coat protein values.
- Test system: MS2 coat protein
- MEASUREMENT_DESCRIPTION: apparent KD of MS2 coat protein; designed switch direction (-1 OFF switch, 1 ON switch): 1; higher = weaker reporter binding
- ASSAY_CONDITIONS: input ligand: microRNA oligo, concentration not stated
Quick note: give the figure in nM, leave out the unit.

For the sequence UUUACUUUCAUAGGAUAUCAUGCGAAAAUUGCGUGAGAAGGGUGAACACUGUCUUUCUAAGAGUACAUGAGGAUCACCCAUGUA [SameState NG1 #65] (Eterna round: R96, puzzle: Same State NG 1) , report apparent KD of MS2 coat protein.
102

For the sequence AUUACUAACAUAGGAUAUCAUGCGAAAAUUGCGUGAGAAGGGUGGACGCUGUCAUUCUCGGAGGACAUGAGGAUCACCCAUGUC [SameState NG1 #71] (Eterna round: R96, puzzle: Same State NG 1) , report apparent KD of MS2 coat protein.
103

For the sequence ACAUGAGAGAUAGGAUAUCAUGUACCUACAUGUGACAUGAGGAUCACCCAUGUGGUAAGUAUGAGUGAGAAGGAUCAGAUAUGU [Equivalence 35 - Jieux - Same State NG 2] (Eterna round: R96, puzzle: Same State NG 2) , report apparent KD of MS2 coat protein.
272

For the sequence GCUAGAAAUAAAGCCAACAUGAGGAUCACCCAUGUAUGUUGGCAGGAUAUCGUAUGCAAAGCAUACGAGAAGGGCCAAACUAGC [Mat - Same State NG 3 - JL Mod - D3] (Eterna round: R96, puzzle: Same State NG 3) , report apparent KD of MS2 coat protein.
85

* * *

So I've got a bunch of sequences here, and I need their apparent KD of MS2 coat protein values.
- Test system: MS2 coat protein
- MEASUREMENT_DESCRIPTION: apparent KD of MS2 coat protein; higher = weaker reporter binding
- ASSAY_CONDITIONS: Eterna round: R107; input ligand: arginine 13.2 mM
Quick note: give the figure in nM, leave out the unit.

For the sequence CGGCCCUCACACGAGGAUCACCCGUGUGAUACCAGCCUGGAAACAGGCCCUUGGCAGCACAAGGUCAUCAAAGAUGACCAAGCCG [TheoAX 22 #SwitchBubble] , report apparent KD of MS2 coat protein.
9.52

For the sequence UGGGAAGGAGGAAGGAGCGCCAUAAGGGUGACAGUCUGGGUACAUGAGGAUCACCCAUGUAGGCAGGUAGGUCGCCUAGCUCUCA [XArg-B16] , report apparent KD of MS2 coat protein.
9.4

For the sequence GACAUGAGGAUCACCCAUGUACCGCGAGAAGGAGCGCGGAUAAACGCAGGUAGGUCGCUCGUGGGCUCACAUUCAAUCGUAAGCU [Azaesisma] , report apparent KD of MS2 coat protein.
50.9

For the sequence UUCAAAGGGAACGGUGCUGGUGACAGAGAUACCAGAGUAGUAAUACUCCCUUGGCAGCUCAGAACAUGAGGAUCACCCAUGUAAU [Exclusion Theophylline A GF22] , report apparent KD of MS2 coat protein.
18.5

For the sequence AAAUAAAUAACUGAUACCAGUGUACUGACAUGAGGAUCACCCAUGUUGGGUUUUGUUGUACACCCUUGGCAGCAGAAAUAUAAAA [AstrosExyTheB#1] , report apparent KD of MS2 coat protein.
28.7

For the sequence GAUUACAUGAGGAUCACCCAUGUAACUGAAGGAGCGGUAAUAAAGCCAGGUAGGUCGCGGAACAACAUGUGGAUCACCCAUGUAA [#13 Exclusion - Arginine A] , report apparent KD of MS2 coat protein.
33.7

For the sequence UUUACAUGAGGAUCACCCAUGUGCCAUGAUACCAGACAUGAAAAUGUCCCUUGGCAGCAUGAGUGAAGCGUCGGGAAACCGACGC [Kninicky] , report apparent KD of MS2 coat protein.
57.1

For the sequence ACGACGCAUAGUGAUACCAGCACAACAUGAGGAUCACCCAUGUCACUUAUGUAGUAAUAAUGCCCUUGGCAGCACUAUGCGUCAG [SSTheo B #1] , report apparent KD of MS2 coat protein.
40.7

For the sequence GCGUCGGUCGGAAGGAGCGACAUGAGGAUCACCCAUGUCUCCCGUUAUGGGAGUUCCUUAGGUCAGGUAGGUCGCCGACGGACGC [#1 Exclusion - Arginine B Attempt #19 (Inspired by Omei)] , report apparent KD of MS2 coat protein.
63.8

For the sequence `UUCAGCUAGUCGGCCGCCACUACAAGAGGAUCACCCUUGUAGGUCCACACUGCUUCGGCAGUGAGUAGGACCGGGACUAGCUGAG` , report apparent KD of MS2 coat protein.
10.9

For the sequence UUACAUGAGGAUCACCCAUGUCAUACAGAAGGAGCGUCACAUAAGACAGGUAGGUCGCUGUUAUAUCAUACUAUUAUAUCCUCUA [JR_Nu_ExcArginiA_Sub028] , report apparent KD of MS2 coat protein.
22

For the sequence AGAUGAGUCACGGCCGCCACUCUUAUCAGGAUCACCCAUGGUUAACAUGAGGAUCACCCAUGUCUGAGGACCGGGUGAUGAGCAU [XTryp B #2] , report apparent KD of MS2 coat protein.
18.3

* * *

- Tested on: MS2 coat protein
- MEASUREMENT_DESCRIPTION: apparent KD of MS2 coat protein; designed switch direction (-1 OFF switch, 1 ON switch): -1; higher = weaker reporter binding
- ASSAY_CONDITIONS: input ligand: microRNA oligo, concentration not stated
Classify by measured apparent KD of MS2 coat protein: 1.0 if it is equal to or exceeds 20 nM, 0.0 if it is smaller.

Could you verify whether the entry AUUGUUUAUGUAGGAUAUGCCUGGCGUGCCUUCGCAGAAGGACAUGAGGAUCACCCAUGUAUUGCGGUCUGCGUUCAGAUCGCG [salish99_ExNG1_r4_026] (Eterna round: R96, puzzle: Exclusion NG 1) shows apparent KD of MS2 coat protein of no less than 20 nM?
1.0

Could you verify whether the entry ACAUGAGGAUCACCCAUGUAAACAUGAUGGCUGAUGUAGAGCUAGGAUAUGAGUGACUAUCUAUCUCAGAAGGAGCUUGACUGG [Deportation 45 - Jieux - Exclusion NG 3] (Eterna round: R96, puzzle: Exclusion NG 3) shows apparent KD of MS2 coat protein of no less than 20 nM?
1.0

Could you verify whether the entry UACAUGAGGAUCACCCAUGUUUUGUCGUGUAUGGUAUUUAUCUAGGAUAUCAAUUGAUUUAAUUAUGAGAAGGAGAAUAUUAAU [JMF's solution 61] (Eterna round: R96, puzzle: Exclusion NG 3) shows apparent KD of MS2 coat protein of no less than 20 nM?
1.0

Could you verify whether the entry ACAAUUAUGACAGGAUAUAGUUUUUGUUGGUCACUAGAAGGGUCUAUGCACAUGAGGAUCACCCAUGUUCUUUUUAUAUGCGAU [JR_ExcNG1_Sub018] (Eterna round: R96, puzzle: Exclusion NG 1) shows apparent KD of MS2 coat protein of no less than 20 nM?
1.0

Could you verify whether the entry UUGGUUGUGGUAGGAUAUCCGUUGGAAACUGUUGGAGAAGGACCACAGUCACUGGGUCUUUGUUUGGUGGAGUGGAAGAACCAU [pwkr exNG1 F6.18] (Eterna round: R96, puzzle: Exclusion NG 1) shows apparent KD of MS2 coat protein of no less than 20 nM?
1.0

Could you verify whether the entry UUGUCGCAUGUAGGAUAUGUAUGUUAUUAUCAUACAGAAGGACAUGAGGAUCACCCAUGUGUAUUAUUAUUAUAUGUUACAUAU [MOD of Hoglahoo's a different Title] (Eterna round: R96, puzzle: Exclusion NG 1) shows apparent KD of MS2 coat protein of no less than 20 nM?
0.0

Could you verify whether the entry GAUUAUGCGAGCUUUAGGGACAUGAGGAUCACCCAUGUUCGUCUUAUUGGUCUGAAUACACUGACAUACCUAAAUCU [JMF 56] (Eterna round: R96, puzzle: Sensor v3, turn-off variant 1) shows apparent KD of MS2 coat protein of no less than 20 nM?
0.0

Could you verify whether the entry AGCGUGGAGACAGGAUAUGAGAAUAGAUAGAACUCAGAAGGGUCACAUGAGGAUCACCCAUGUAAAGUCUUGAGGCUGAGUGGU [Prohibition 6 - Jieux - Exclusion NG 1] (Eterna round: R96, puzzle: Exclusion NG 1) shows apparent KD of MS2 coat protein of no less than 20 nM?
1.0

Could you verify whether the entry UAGGCACCUGCAGGAUAUUAGAGGCGCUUUCUGUAAGAAGGGCAGGUUCACAUGAGGAUCACCCAUGUAAAGAACAGCAUGGCA [Eternabot solution 24] (Eterna round: R96, puzzle: Exclusion NG 1) shows apparent KD of MS2 coat protein of no less than 20 nM?
0.0

Could you verify whether the entry GAAAACGCAGAGGAUAUUCCAGAUCUAAGCUGCGAAGAAGGCUGCACAUGAGGAUCACCCAUGUGGUCUUUAAA [Maoned] (Eterna round: R96, puzzle: Exclusion 6) shows apparent KD of MS2 coat protein of no less than 20 nM?
0.0

Could you verify whether the entry AUUAAACGUGUAGGAUAUGCGUGGCGAAGCUAUGCAGAAGGACAUGAGGAUCACCCAUGUUCUAGCGUCUGCGUACAGAUGCUA [JL eng1 1.35 mod 5] (Eterna round: R96, puzzle: Exclusion NG 1) shows apparent KD of MS2 coat protein of no less than 20 nM?
0.0

Could you verify whether the entry UCGAGUGGUUAGGAUAUCAUUGGUGCAUAUCAUUGAGAAGGAACUACAUGAGGAUCACCCAUGUGGCAGUGAUA [Abezaso] (Eterna round: R96, puzzle: Exclusion 6) shows apparent KD of MS2 coat protein of no less than 20 nM?
1.0

Could you verify whether the entry UCGUUCCGUGUAGGAUAUUGGCCUUCCCUGGGCCGAGAAGGACAUGAGGAUCACCCAUGUAUGUUAUUAUCGCGCGUGGCGCAU [Design 86] (Eterna round: R96, puzzle: Exclusion NG 1) shows apparent KD of MS2 coat protein of no less than 20 nM?
0.0

Could you verify whether the entry AGAGAAUAGUCAGGAUAUGUGAAUAGAUAGAGAACAGAAGGGACACAUGAGGAUCACCCAUGUGAAGUCUUGAGGCUGCAUGGA [Prohibition 22 - Jieux - Exclusion NG 1] (Eterna round: R96, puzzle: Exclusion NG 1) shows apparent KD of MS2 coat protein of no less than 20 nM?
1.0

Could you verify whether the entry GGAUAAAAGUCAGGAUAUACGUAUCACUAACGAGUAGAAGGGACACAUGAGGAUCACCCAUGUGAGUUCUCAAUAAGAAACACG [Prohibition 62 - Jieux - Exclusion NG 1] (Eterna round: R96, puzzle: Exclusion NG 1) shows apparent KD of MS2 coat protein of no less than 20 nM?
0.0

Could you verify whether the entry GCAGCUAAUCGAGGAUAUCAGCACGUGUAGUGCUGAGAAGGCGACAUGAGGAUCACCCAUGUGAUCAAUUAAUAUUAAUGCUGC [ENG1/11-A3] (Eterna round: R96, puzzle: Exclusion NG 1) shows apparent KD of MS2 coat protein of no less than 20 nM?
1.0

Could you verify whether the entry UUGAAGUCAUCAGGAUAUAGUAUUAAAGACAUUUAUAUUUUCAAACAUGAGGAUCACCCAUGUCGCUAGAAGGGAUUAUAGAUU [JR_ExcNG2_Sub080] (Eterna round: R96, puzzle: Exclusion NG 2) shows apparent KD of MS2 coat protein of no less than 20 nM?
1.0

These entries and their values trace back to the supplement of paper PMC9170038.
